- assayed-target: CRAC ion channels (ICRAC current), RBL-2H3 cells (Rattus norvegicus, UniProt Q5M848)
- Construct: endogenous in cells; host or cells: RBL-2H3 (rat basophilic leukemia) cells
- Sequence (Q5M848 whole entry): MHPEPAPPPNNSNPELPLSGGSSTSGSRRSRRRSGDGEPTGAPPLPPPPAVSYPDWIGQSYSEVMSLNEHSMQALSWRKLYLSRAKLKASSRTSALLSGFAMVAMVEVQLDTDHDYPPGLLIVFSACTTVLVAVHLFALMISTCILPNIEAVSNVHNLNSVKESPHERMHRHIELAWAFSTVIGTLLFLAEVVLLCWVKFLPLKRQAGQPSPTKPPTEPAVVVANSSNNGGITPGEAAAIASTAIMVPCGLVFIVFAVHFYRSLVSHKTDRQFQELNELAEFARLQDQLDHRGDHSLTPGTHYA
- protocol-summary: Automated patch clamp (Qpatch) inhibition of ICRAC current in RBL-2H3 cells
- Assay type: cell-based
- stated-conditions: 100 nM compound, % ICRAC inhibition
readout-label: inhibition at 0.1 µM (%)
Respond with the bare value in %.

Query: Give CRAC ion channels (ICRAC current), RBL-2H3 cells (Rattus norvegicus, UniProt Q5M848) inhibition at 0.1 µM for CC1=C(c2ccc(C(=O)Nc3c(F)cccc3F)cc2)CN(c2nnn(C)n2)CC1 [Compound 41]
Response: 60

Query: Give CRAC ion channels (ICRAC current), RBL-2H3 cells (Rattus norvegicus, UniProt Q5M848) inhibition at 0.1 µM for CC1=C(c2cnc(NC(=O)c3cccc(F)c3F)cn2)CN(c2nnn(C)n2)CC1 [Compound 37]
Response: 61

Query: Give CRAC ion channels (ICRAC current), RBL-2H3 cells (Rattus norvegicus, UniProt Q5M848) inhibition at 0.1 µM for CC1=C(c2ccc(NC(=O)c3ccncc3F)cc2)CN(c2nnn(C)n2)CC1 [Compound 26]
Response: 69

Query: Give CRAC ion channels (ICRAC current), RBL-2H3 cells (Rattus norvegicus, UniProt Q5M848) inhibition at 0.1 µM for Cn1nnc(N2CCC(C3CC3)=C(c3cnc(NC(=O)c4cccc(F)c4F)cn3)C2)n1 [Compound 39]
Response: 69

Query: Give CRAC ion channels (ICRAC current), RBL-2H3 cells (Rattus norvegicus, UniProt Q5M848) inhibition at 0.1 µM for CC1=C(c2ccc(NC(=O)c3cnccc3C)cc2)CN(c2nnn(C)n2)CC1 [Compound 47]
Response: 70
